Reference source: patent US10155733B2

This listing pairs molecules with measured pIC50.
Target: human M3 receptor (Homo sapiens (Human), UniProt P20309)
Sequence (P20309 whole entry): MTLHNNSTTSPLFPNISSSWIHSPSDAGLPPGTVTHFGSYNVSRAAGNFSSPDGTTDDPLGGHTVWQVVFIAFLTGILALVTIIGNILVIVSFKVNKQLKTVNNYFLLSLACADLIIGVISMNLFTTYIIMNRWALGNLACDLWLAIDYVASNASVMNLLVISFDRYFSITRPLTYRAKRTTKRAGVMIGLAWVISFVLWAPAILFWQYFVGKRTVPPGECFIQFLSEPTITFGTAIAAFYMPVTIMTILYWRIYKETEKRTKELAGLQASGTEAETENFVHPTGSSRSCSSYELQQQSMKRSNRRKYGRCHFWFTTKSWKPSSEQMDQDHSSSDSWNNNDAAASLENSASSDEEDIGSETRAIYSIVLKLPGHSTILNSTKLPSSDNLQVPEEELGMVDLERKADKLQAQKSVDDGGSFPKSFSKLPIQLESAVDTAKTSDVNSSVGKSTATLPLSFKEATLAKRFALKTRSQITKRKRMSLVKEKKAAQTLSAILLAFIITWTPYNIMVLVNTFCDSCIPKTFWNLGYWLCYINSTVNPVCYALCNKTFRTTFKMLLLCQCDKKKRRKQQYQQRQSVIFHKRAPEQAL
Assay: Muscarinic 3 receptor binding assay (3H-scopolamine displacement)
pIC50: −log10 of the molar value.
endpoint.name: pIC50

[[record]]
molecule = "CC(Cc1ccc2c(c1)OCO2)CN1CCN(C(=O)C(O)(c2ccccc2)C2CCCC2)CC1 (stereo not drawn)"
measured_target = "human M3 receptor (Homo sapiens (Human), UniProt P20309)"
endpoint_name = "pIC50"
observed_measurement = 5.34

[[record]]
molecule = "COc1ccc(CCN2CCN(C(=O)C(O)(c3ccccc3)C3CCCC3)CC2)cc1 (stereo not drawn)"
measured_target = "human M3 receptor (Homo sapiens (Human), UniProt P20309)"
endpoint_name = "pIC50"
observed_measurement = 6.45

[[record]]
molecule = "O=C(N1CCN(CCOc2ccccc2)CC1)C(O)(c1ccccc1)C1CCCC1 (stereo not drawn)"
measured_target = "human M3 receptor (Homo sapiens (Human), UniProt P20309)"
endpoint_name = "pIC50"
observed_measurement = 5.92

[[record]]
molecule = "O=C(C(c1ccccc1)C1CCCC1)N1CCN(CCc2ccccc2)CC1 (stereo not drawn)"
measured_target = "human M3 receptor (Homo sapiens (Human), UniProt P20309)"
endpoint_name = "pIC50"
observed_measurement = 5.74

[[record]]
molecule = "O=C(N1CCN(CCCc2ccccc2)CC1)C(O)(c1ccccc1)C1CCCC1 (stereo not drawn)"
measured_target = "human M3 receptor (Homo sapiens (Human), UniProt P20309)"
endpoint_name = "pIC50"
observed_measurement = 7.20

[[record]]
molecule = "O=C(N1CCN(CC(O)c2ccccc2)CC1)C(O)(c1ccccc1)C1CCCC1 (stereo not drawn)"
measured_target = "human M3 receptor (Homo sapiens (Human), UniProt P20309)"
endpoint_name = "pIC50"
observed_measurement = 5.37

[[record]]
molecule = "O=C(CN1CCN(C(=O)C(O)(c2ccccc2)C2CCCC2)CC1)c1ccccc1 (stereo not drawn)"
measured_target = "human M3 receptor (Homo sapiens (Human), UniProt P20309)"
endpoint_name = "pIC50"
observed_measurement = 5.57

[[record]]
molecule = "O=C(N1CCN(C/C=C/c2ccccc2)CC1)C(O)(c1ccccc1)C1CCCC1 (stereo not drawn)"
measured_target = "human M3 receptor (Homo sapiens (Human), UniProt P20309)"
endpoint_name = "pIC50"
observed_measurement = 6.71

[[record]]
molecule = "O=C(N1CCN(CCc2ccccc2)CC1)C(O)(c1ccccc1)C1CCCC1 (stereo not drawn)"
measured_target = "human M3 receptor (Homo sapiens (Human), UniProt P20309)"
endpoint_name = "pIC50"
observed_measurement = 5.33

